Tested on: susceptible H37Rv M. tuberculosis, strain ATCC 25618
experiment: Mycobacterium tuberculosis susceptibility assay REMA (resazurin microtiter assay)
Type: cell-based
recorded-conditions: Mycobacterium tuberculosis, 144 h, read-out: REMA MIC
Where a name gives a salt, the structure may show the parent alone.
Here the recorded MIC is given for each entry.
outcome-measure: MIC

# compound, outcome-measure, result
measured = [
    ("CCOC(=O)C1CCN(c2ccc3cc(-c4ccc(OC)cc4C(F)(F)F)ccc3n2)CC1 [Compound 24, hydrochloride]", "MIC", "< 7.8 µM"),
    ("O=C(O)C1CCN(c2ccc3cc(-c4ccncc4)ccc3n2)CC1 [Compound 18, hydrochloride]", "MIC", "7.8 to 15.6 µM"),
    ("CCOC(=O)C1CCN(c2ccc3cc(-c4ccc(OC)cc4)ccc3n2)CC1 [Compound 20]", "MIC", "7.8 to 15.6 µM"),
    ("CCOC(=O)C1CCN(c2ccc3cc(-c4ccncc4)ccc3n2)CC1 [Compound 15, hydrochloride]", "MIC", "7.8 to 15.6 µM"),
]

---

System: HepG2 cell line
experiment: in vitro cytotoxicity assay (MTS tetrazolium reduction, cell viability)
Format: cell-based
recorded-conditions: Homo sapiens, HepG2, 48 h, Table 2, cytotoxicity, MTS, read-out: IC50

# molecule, IC50
rows = [
    ("CCOC(=O)C1CCN(c2ccc3cc(-c4cnc(OC)nc4)ccc3n2)CC1", "> 100 µM"),
    ("CCOC(=O)C1CCN(c2ccc3cc(-c4cccc(O)c4)ccc3n2)CC1", "> 100 µM"),
]

---

experiment: physchem
Assay type: physicochemical
recorded-conditions: pH 7.4
outcome-measure: logD

# molecule, outcome-measure, result
records = [
    ("CCOC(=O)C1CCN(c2ccc3cc(-c4cccc(O)c4)ccc3n2)CC1", "logD", "> 4.5"),
]

---

experiment: in vitro
Format: in vitro ADME
recorded-conditions: human, plasma, pH 7.4
outcome-measure: fraction unbound at 5 h, 1 μM

# molecule, outcome-measure, result
records = [
    ("CCOC(=O)C1CCN(c2ccc3cc(-c4cccc(O)c4)ccc3n2)CC1", "fraction unbound at 5 h, 1 μM", "≤ 0.01"),
]

Reference source for all entries: patent US12383548B2
